Target: T1, His6MycCALM_(ANTH) (CALM ANTH domain, residues 1-289) (rat, UniProt O55012 1-289)
T1 construct: source: E. coli BL21(DE3) pLysS, purified (Ni2+-NTA agarose, S200 gel filtration)
T1 sequence (looked up): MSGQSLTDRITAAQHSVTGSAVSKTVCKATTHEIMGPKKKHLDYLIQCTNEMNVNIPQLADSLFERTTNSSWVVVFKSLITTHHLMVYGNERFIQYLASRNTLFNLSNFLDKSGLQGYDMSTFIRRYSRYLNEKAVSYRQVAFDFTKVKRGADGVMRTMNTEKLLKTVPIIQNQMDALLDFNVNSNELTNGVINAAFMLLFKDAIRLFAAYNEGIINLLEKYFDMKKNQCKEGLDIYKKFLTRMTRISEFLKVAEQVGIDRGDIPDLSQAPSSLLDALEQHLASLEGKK
Test: ITC; VPiTC; 2 mM His6MycCALM_(ANTH) (WT or mutant) or GST cleaved Epsin_(ENTH) titrated in 37 injections of 4-8 μL into 0.15 mM GST-SNARE in the cell; 100 mM HEPES pH 7.4, 150 mM NaCl, 4 mM DTT; legends give a representative run with SEM of the fit, the text the average of all runs
Conditions: both partners purified
quantity: pKd
In simple prose, pKd is minus the logarithm base ten of a concentration in moles per litre.

Input: Looking for the measured pKd of GST-VAMP3 (VAMP3 residues 1-81) (domain or fragment) MSTGVPSGSSAATGSNRRLQQTQNQVDEVVDIMRVNVDKVLERDQKLSELDDRADALQAGASQFETSAAKLKRKYWWKNCK , can you help?
Output: 4.34

Input: # repeat for NDRVRNLQSEVEGVKNIMTQNVERILSRGENL (domain or fragment, mouse, UniProt O70404 10-41, looked up, VAMP8, mouse, residues 10-41 (N-terminal half of the SNARE motif); Construct pGEX 4T2 VAMP8_((10-41)); also called residues 10-41 of VAMP8; source: E. coli BL21(DE3) pLysS, purified (glutathione sepharose, S200 gel filtration)) [GST-VAMP8_(10-41)]
Output: 4.70

Input: # repeat for GSTVAMP8 L44PL51P (domain or fragment, mouse, UniProt O70404 1-76, looked up, VAMP8, mouse, residues 1-76; source: E. coli BL21(DE3) pLysS, purified (glutathione sepharose, S200 gel filtration)) MEEASGSAGNDRVRNLQSEVEGVKNIMTQNVERILSRGENLDHPRNKTEDPEATSEHFKTTSQKVARKFWWKNVKM
Output: 4.64
